- ASSAY_SYSTEM: T1, T47D (native PRLR expressing cell line) (Homo sapiens, UniProt P16471)
- T1 construct: a native PRLR expressing cell line (T47D); endogenous in cells; host or cells: T47D
- T1 sequence (P16471 25-622): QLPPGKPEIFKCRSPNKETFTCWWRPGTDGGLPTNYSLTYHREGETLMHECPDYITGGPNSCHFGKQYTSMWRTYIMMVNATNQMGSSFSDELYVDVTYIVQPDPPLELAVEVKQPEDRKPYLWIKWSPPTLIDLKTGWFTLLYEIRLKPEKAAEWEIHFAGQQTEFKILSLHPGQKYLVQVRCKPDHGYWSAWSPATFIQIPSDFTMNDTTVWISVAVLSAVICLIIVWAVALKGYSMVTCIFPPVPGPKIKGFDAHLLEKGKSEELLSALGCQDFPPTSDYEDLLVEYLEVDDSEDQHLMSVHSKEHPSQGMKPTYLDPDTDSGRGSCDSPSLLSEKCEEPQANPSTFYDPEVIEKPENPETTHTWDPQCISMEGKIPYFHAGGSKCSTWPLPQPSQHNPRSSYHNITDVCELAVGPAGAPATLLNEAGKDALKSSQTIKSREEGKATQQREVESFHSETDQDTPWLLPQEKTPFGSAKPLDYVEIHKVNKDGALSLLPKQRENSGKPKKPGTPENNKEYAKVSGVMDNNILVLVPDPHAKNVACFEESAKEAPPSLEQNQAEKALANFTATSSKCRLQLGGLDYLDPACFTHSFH
- ASSAY_EXPLANATION: FACS cell surface binding
MEASUREMENT_NAME: FACS Cell Binding (Fold Above Background)

| MOLECULE | ENDPOINT_VALUE |
| --- | --- |
| H1H6762P: anti-PRLR antibody, human IgG1 Fc; HCVR/LCVR SEQ ID NOs 2/10 (antibody, V domains shown, human IgG1 Fc) VH: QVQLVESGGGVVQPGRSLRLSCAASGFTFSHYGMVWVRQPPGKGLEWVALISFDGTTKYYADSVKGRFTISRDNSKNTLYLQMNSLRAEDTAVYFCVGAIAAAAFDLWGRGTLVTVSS VL: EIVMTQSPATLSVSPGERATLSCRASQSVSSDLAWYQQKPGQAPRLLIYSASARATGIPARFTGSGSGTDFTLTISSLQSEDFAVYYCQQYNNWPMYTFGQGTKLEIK | 38 |
| H1H6765P: anti-PRLR antibody, human IgG1 Fc; HCVR/LCVR SEQ ID NOs 18/26 (antibody, V domains shown, human IgG1 Fc) VH: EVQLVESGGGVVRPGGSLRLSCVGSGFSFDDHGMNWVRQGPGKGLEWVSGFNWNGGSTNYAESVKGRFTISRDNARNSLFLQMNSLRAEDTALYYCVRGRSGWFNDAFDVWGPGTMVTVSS VL: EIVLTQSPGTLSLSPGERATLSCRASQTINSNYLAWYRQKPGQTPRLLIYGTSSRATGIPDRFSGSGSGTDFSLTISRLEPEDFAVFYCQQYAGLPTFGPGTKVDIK | 40 |
| H1H6801P: anti-PRLR antibody, human IgG1 Fc; HCVR/LCVR SEQ ID NOs 210/218 (antibody, V domains shown, human IgG1 Fc) VH: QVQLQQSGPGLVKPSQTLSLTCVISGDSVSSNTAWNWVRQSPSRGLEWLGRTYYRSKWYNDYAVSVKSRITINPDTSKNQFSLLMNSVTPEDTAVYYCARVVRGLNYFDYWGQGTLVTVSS VL: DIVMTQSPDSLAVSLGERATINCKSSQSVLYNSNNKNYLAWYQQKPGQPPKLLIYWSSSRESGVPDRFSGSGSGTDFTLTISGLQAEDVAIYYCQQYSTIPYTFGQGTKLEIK | 45 |
| H1H6800P: anti-PRLR antibody, human IgG1 Fc; HCVR/LCVR SEQ ID NOs 194/202 (antibody, V domains shown, human IgG1 Fc) VH: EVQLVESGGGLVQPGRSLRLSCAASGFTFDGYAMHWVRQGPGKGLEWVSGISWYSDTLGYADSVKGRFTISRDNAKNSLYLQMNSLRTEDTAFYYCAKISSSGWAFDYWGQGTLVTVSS VL: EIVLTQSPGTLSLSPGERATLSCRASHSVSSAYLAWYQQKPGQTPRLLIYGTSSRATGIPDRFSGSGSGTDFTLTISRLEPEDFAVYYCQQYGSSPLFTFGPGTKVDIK | 41 |
| H1H6976N: human IgG1 Fc form of H2M6976N; anti-PRLR; HCVR/LCVR SEQ ID NOs 386/394 (antibody, V domains shown, human IgG1 Fc) VH: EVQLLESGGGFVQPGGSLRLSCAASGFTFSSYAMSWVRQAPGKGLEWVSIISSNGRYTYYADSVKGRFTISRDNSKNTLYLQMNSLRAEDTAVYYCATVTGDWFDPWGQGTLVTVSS VL: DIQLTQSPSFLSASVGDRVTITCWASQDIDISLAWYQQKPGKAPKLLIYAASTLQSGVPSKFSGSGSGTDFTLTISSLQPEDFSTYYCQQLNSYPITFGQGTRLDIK | 37 |
| H1H6967N: human IgG1 Fc form of H2M6967N; anti-PRLR; HCVR/LCVR SEQ ID NOs 354/362 (antibody, V domains shown, human IgG1 Fc) VH: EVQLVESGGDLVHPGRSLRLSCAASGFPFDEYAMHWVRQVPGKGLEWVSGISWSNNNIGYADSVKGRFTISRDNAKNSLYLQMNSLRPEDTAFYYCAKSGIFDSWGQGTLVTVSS VL: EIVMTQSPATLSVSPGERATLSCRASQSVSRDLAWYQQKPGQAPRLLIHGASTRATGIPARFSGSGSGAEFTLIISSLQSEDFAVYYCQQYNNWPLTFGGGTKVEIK | 41 |
| H1H6966N: human IgG1 Fc form of H2M6966N; anti-PRLR; HCVR/LCVR SEQ ID NOs 338/346 (antibody, V domains shown, human IgG1 Fc) VH: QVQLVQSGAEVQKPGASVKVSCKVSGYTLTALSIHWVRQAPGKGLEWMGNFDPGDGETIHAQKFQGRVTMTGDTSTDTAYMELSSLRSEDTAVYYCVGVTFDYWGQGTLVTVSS VL: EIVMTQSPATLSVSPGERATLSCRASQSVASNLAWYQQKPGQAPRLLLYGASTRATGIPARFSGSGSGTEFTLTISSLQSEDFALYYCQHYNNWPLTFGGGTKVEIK | 31 |
| H1H6792P: anti-PRLR antibody, human IgG1 Fc; HCVR/LCVR SEQ ID NOs 130/138 (antibody, V domains shown, human IgG1 Fc) VH: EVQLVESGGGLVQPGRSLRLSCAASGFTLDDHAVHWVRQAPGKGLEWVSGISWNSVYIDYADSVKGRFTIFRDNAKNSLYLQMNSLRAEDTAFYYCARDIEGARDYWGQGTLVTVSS VL: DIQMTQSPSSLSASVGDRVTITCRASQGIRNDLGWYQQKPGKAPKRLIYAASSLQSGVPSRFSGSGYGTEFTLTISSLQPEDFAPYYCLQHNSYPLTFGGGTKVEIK | 37 |
